The reported measurements were obtained from the METLIN SMRT retention time set (Domingo-Almenara et al. 2019).

- TEST DETAILS: gradient 5% acetonitrile 3 min, to 50% in 2 min, to 85% in 15 min, held 3 min, 100 µL/min
- STATED CONDITIONS: column: Zorbax Extend-C18 2.1 x 50 mm; eluents: water / acetonitrile, 0.1% formic acid
QUANTITY KIND: RP-LC retention time (s)
Numbers only, in s.

{"columns": ["COMPOUND", "ENDPOINT UNIT", "RP-LC retention time"],
 "data": [
  ["O=C(CN1C(=O)CN(C(=O)Nc2ccccc2)c2ccccc21)NCc1ccccn1", "s", 587],
  ["Brc1ccc(OCc2nn3c(-c4ccccn4)nnc3s2)cc1", "s", 872]
]}

Attention now turns to another entry.
State the recorded RP-LC retention time for this entry: O=C(CN1C(=O)C2CCCCN2c2ccc(C(=O)N3CCCCC3)cc21)NC1CCCC1 (stereo not drawn)
828
